target: recombinant form of Glutaminase 1 (GAC) (Homo sapiens, UniProt O94925); test: Recombinant Enzyme Assay - Time Dependence (60 min preincubation); format: biochemical; details: read-out: GAC Delta N2 IC50 60 min preinc
Readout label: IC50 (nM)
Number in nM, nothing else.

So what IC50 did O=C(Cc1ccccc1Cl)Nc1ccc(CCCCc2nnc(NC(=O)Cc3ccccc3Cl)s2)nn1 [Compound 565] get with recombinant form of Glutaminase 1 (GAC) (Homo sapiens, UniProt O94925)? 5

Now consider CC(C)(C)OC(=O)N1Cc2cccc(CC(=O)Nc3nnc(CCCCc4ccc(NC(=O)Cc5ccccc5)nn4)s3)c2C1 [Compound 608] and answer again. 7

Now consider CCOc1cccc(CC(=O)Nc2nnc(CCCCc3ccc(NC(=O)Cc4ccccc4)nn3)s2)c1 [Compound 488] and answer again. 320

Now consider CC(C)(C)OC(=O)NCc1cccc(CC(=O)Nc2nnc(CCCCc3ccc(NC(=O)Cc4cccc(OC(F)(F)F)c4)nn3)s2)c1 [Compound 586] and answer again. 13

Now consider COc1ccccc1CC(=O)Nc1nnc(CCCCc2ccc(NC(=O)Cc3ccccc3)nn2)s1 [Compound 469] and answer again. 7

Now consider O=C(Cc1ccccc1OC(F)(F)F)Nc1ccc(CCCCc2nnc(NC(=O)Cc3ccccc3)s2)nn1 [Compound 614] and answer again. 8

Now consider O=C(Cc1ccccc1F)Nc1ccc(CCCCc2nnc(NC(=O)Cc3ccccc3)s2)nn1 [Compound 520] and answer again. 7

Now consider O=C(Cc1ccccc1)Nc1ccc(CCCCc2nnc(NC(=O)Cc3cccc(CC(=O)N4CCCC4)c3)s2)nn1 [Compound 473] and answer again. 2

Now consider CC(C(=O)Nc1nnc(CCCCc2ccc(NC(=O)Cc3cccc(OC(F)(F)F)c3)nn2)s1)c1ccccc1 (stereo not drawn) [Compound 636] and answer again. 8

Now consider O=C(Cc1cccc(OC(F)(F)F)c1)Nc1ccc(CCCCc2nnc(NC(=O)Cc3ccccc3)s2)nn1 [Compound 585] and answer again. 6

Now consider O=C(Cc1cccc(OC(F)(F)F)c1)Nc1ccc(CCCCc2nnc(NC(=O)Cc3cccc(OC(F)(F)F)c3)s2)nn1 [Compound 660] and answer again. 25

Now consider CC(C(=O)NCc1cccc(CC(=O)Nc2nnc(CCCCc3ccc(NC(=O)Cc4ccccc4)nn3)s2)c1)c1ccc(O)cc1 (stereo not drawn) [Compound 576] and answer again. 3

Now consider CCOC(=O)NCc1cccc(CC(=O)Nc2nnc(CCCCc3ccc(NC(=O)Cc4ccccc4)nn3)s2)c1 [Compound 382] and answer again. 3

Now consider CC(C)(C)NC(=O)Cc1cccc(CC(=O)Nc2nnc(CCCCc3ccc(NC(=O)Cc4ccccc4)nn3)s2)c1 [Compound 495] and answer again. 5

Now consider NCc1ccccc1CC(=O)Nc1nnc(CCCCc2ccc(NC(=O)Cc3ccccc3)nn2)s1 [Compound 466] and answer again. 51

----------
target: recombinant form of glutaminase (GAC Delta N2) (Homo sapiens); test: Modified Recombinant Enzyme Assay - Time Dependence; settings: 60 min preincubation
Sequence (O94925 137-598 isoform O94925-3 limits assumed): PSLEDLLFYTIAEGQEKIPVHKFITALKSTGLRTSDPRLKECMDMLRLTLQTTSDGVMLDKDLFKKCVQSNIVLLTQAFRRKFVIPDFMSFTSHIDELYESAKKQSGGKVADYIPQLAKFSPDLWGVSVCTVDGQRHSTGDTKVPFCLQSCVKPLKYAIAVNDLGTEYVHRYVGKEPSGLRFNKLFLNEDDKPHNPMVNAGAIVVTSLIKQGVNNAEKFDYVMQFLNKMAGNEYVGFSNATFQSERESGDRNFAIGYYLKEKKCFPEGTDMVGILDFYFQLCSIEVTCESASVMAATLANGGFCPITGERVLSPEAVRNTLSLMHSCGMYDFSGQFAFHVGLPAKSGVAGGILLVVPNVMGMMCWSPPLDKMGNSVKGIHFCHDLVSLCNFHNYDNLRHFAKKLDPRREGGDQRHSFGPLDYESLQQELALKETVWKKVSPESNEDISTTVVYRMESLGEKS
Readout label: log10 of IC50 (log10 of the value in nM)
Units before log transform: nM; reported quantity: IC50; transform: log10.

Entry under review: Nc1cccc(CC(=O)Nc2nnc(CCCCc3ccc(NC(=O)Cc4cccc(OC(F)(F)F)c4)nn3)s2)n1 . Reported log10 of IC50? 1.70

Now consider O=C(Cc1cc(OC(F)(F)F)ccc1F)Nc1ccc(CCCCc2nnc(NC(=O)Cc3ccccn3)s2)nn1 and answer again. 1.30

Now consider O=C(Cc1ccc(O)c(OC(F)(F)F)c1)Nc1ccc(CCCCc2nnc(NC(=O)Cc3ccccn3)s2)nn1 and answer again. 1.62

Now consider COc1ccc(OC(F)(F)F)cc1CC(=O)Nc1ccc(CCCCc2nnc(NC(=O)Cc3ccccn3)s2)nn1 and answer again. 1.53

Now consider Cc1cccc(CC(=O)Nc2nnc(CCCCc3ccc(NC(=O)Cc4cccc(OC(F)(F)F)c4)nn3)s2)n1 and answer again. 1.08

Now consider O=C(Cc1ccccn1)Nc1nnc(CCCCc2ccc(NC(=O)C(O)c3ccccc3)nn2)s1 (stereo not drawn) and answer again. 2.28
